# test_summary: in vivo
# Design: species or system mouse
# measurement_setup: male, C57BL6, mouse, in vivo, iv, 1 mg/kg, mouse (m); intravenous; read-out: Vdss
recorded_metric: Vd (L/kg)
Express it in L/kg; write the number only.

# return recorded Vd for input Cc1ccc(N2CCN(C)CC2)cc1C(=O)NC1(c2cc(-c3cnn(C)c3)nc3ccccc23)CC1 [Compound 4]
2.12

====

# test_summary: in vivo
# Design: species or system mouse
# measurement_setup: male, C57BL6, mouse, in vivo, iv, 1 mg/kg, Male C57BL6 mouse; 1.0 mg/kg iv; solution; mean n=2; read-out: Vdss
recorded_metric: Vd (L/kg)
Express it in L/kg; write the number only.

# return recorded Vd for input Cc1ccc(N2CCN(C)CC2)cc1C(=O)NC1(c2cc(-c3cnn(C)c3)nc3ccccc23)CC1
2.13
